Would you kindly list log2 fold change of degron read counts for each of these sequences?
# SYSTEM_NAME: T1, CRBN, Q96SW2;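 further: pooled lentiviral library of zinc finger degron-EGFP fusions in mCherry-positive Jurkat cells, FACS-sorted after compound exposure, with degron abundance counted by next-generation sequencing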
# T1 chain: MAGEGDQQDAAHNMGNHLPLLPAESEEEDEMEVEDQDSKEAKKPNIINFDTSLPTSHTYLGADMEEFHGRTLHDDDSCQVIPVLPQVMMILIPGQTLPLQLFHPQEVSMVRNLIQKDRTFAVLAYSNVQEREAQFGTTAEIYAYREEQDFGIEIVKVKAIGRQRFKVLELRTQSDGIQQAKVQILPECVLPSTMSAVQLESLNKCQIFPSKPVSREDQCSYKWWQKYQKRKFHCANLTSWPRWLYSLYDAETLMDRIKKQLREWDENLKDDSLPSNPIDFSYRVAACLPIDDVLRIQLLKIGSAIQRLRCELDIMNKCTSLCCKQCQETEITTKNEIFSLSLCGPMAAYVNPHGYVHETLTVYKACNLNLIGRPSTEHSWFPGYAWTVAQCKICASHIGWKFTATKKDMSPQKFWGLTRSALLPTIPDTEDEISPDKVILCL
# TEST_PROTOCOL: log2 fold change of degron read counts, EGFP-low vs EGFP+ sorted cells (limma voom), compound-induced degradation; higher = more compound-induced degradation of the degron-EGFP fusion; degrons are variants of IKZF1/3 zinc finger 2; compound dose not given here
# SETTINGS: Jurkat; 18 h; compound: compound 33 (diphenyl IMiD analogue)
Over roughly 8,300 sequences, “log2 fold change of degron read counts, EGFP-low vs EGFP+ sorted cells (limma voom), compound-induced degradation” has its median near -1.1; the highest 2% begin near 3.2. What follows is part of a selection rich in the highest values, with near analogues and random picks from the rest.
One number for each entry.

**Query** Tell me its log2 fold change of degron read counts given LICNQCGFDCTQKGNLLRHIKL [46L_47I_49N_50Q_52G_53F_54D_55C_67L_, Q9UKT9] as the entry.
**Result** -2.9

**Query** Look up and report measured log2 fold change of degron read counts for this entry: LMCEICGFSCTQKGNLLRHIKL [46L_47M_49E_50I_52G_53F_54S_55C_67L_, Q9UKT9]
**Result** 2.59

**Query** For FRCEVCGARFTQKGNLLRHIKL [46F_47R_49E_50V_52G_53A_54R_55F_67L_, Q9UKT9] , write its log2 fold change of degron read counts.
**Result** -0.456

**Query** Check the records and state log2 fold change of degron read counts for LQCNQCGFICTQKGNLLRHIKL [46L_47Q_49N_50Q_52G_53F_54I_55C_67L_, Q9UKT9]
**Result** -2.23

For each of the sequences below, note its log2 fold change of degron read counts.
1. FVCNQCGRLFTQKGNLLRHIKL [46F_47V_49N_50Q_52G_53R_54L_55F_67L_, Q9UKT9]
2. LICEICGFSCTQKGNLLRHIKL [46L_47I_49E_50I_52G_53F_54S_55C_67L_, Q9UKT9]
3. FLCDVCGAKFTQKGNLLRHIKL [46F_47L_49D_50V_52G_53A_54K_55F_67L_, Q9UKT9]
4. FQCEICGHGFTQKGNLLRHIKL [46F_47Q_49E_50I_52G_53H_54G_55F_67L_, Q9UKT9]
5. FICEVCGAIFTQKGNLLRHIKL [46F_47I_49E_50V_52G_53A_54I_55F_67L_, Q9UKT9]

**Result**
1: -1.99; 2: 2.39; 3: -1.78; 4: -2.95; 5: 2.04
